System: differentiated adipocytes
Experiment: Hallmark genes and triglycerides in differentiated adipocytes
Format: cell-based, human
Conditions: Table 28; differentiated adipocytes transfected day nine post-differentiation; 250 nM oligonucleotide
Excerpt: The effect of the oligomeric compounds of the present invention targeting miRNAs on the expression of markers of cellular differentiation was examined in differentiated adipocytes. As previously described, the HSL, aP2, Glut4, and PPARγ genes play important rolls in the uptake of glucose and the metabolism and utilization of fats. […] Oligomeric compound treatments and transfectant-only negative controls may be measured up to six times per plate. […]
In the oligonucleotide strings, read from the 5' end, every base follows the letter of its sugar. An asterisk marks phosphorothioate; unmarked linkages are phosphodiester. Other units and linkages are bracketed, terminal groups are in braces. A string of capitals states the bases alone. e = 2'-O-(2-methoxyethyl) (MOE); [5mC] = 5-methylcytosine
# Lookup of reported aP2 keyed by entry
Give the figure only, with no unit attached.

Past entries and their recorded results:
[
  {
    "substance": "327880 (antisense eA*e[5mC]*eA*eA*eA*eT*eT*e[5mC]*eG*eG*eT*eT*e[5mC]*eT*eA*e[5mC]*eA*eG*eG*eG*eT*eA) [compound 327880]",
    "aP2": 1.14
  },
  {
    "substance": "327901 (antisense eT*eG*eA*eG*e[5mC]*eT*eA*e[5mC]*eA*eG*eT*eG*e[5mC]*eT*eT*e[5mC]*eA*eT*e[5mC]*eT*e[5mC]*eA) [compound 327901]",
    "aP2": 1.28
  },
  {
    "substance": "327934 (antisense eG*eG*eT*eA*e[5mC]*eA*eA*eT*e[5mC]*eA*eA*e[5mC]*eG*eG*eT*e[5mC]*eG*eA*eT*eG*eG*eT) [compound 327934]",
    "aP2": 1.50
  },
  {
    "substance": "327925 (antisense eT*eA*eG*e[5mC]*eT*eG*eG*eT*eT*eG*eA*eA*eG*eG*eG*eG*eA*e[5mC]*e[5mC]*eA*eA) [compound 327925]",
    "aP2": 0.78
  }
]

Q) Endpoint output: aP2 of 327913 (antisense eA*eA*e[5mC]*e[5mC]*eG*eA*eT*eT*eT*e[5mC]*eA*eA*eA*eT*eG*eG*eT*eG*e[5mC]*eT*eA*eG) [compound 327913] . Value?
A) 1.05

----------
test system: T47Dp53 cells; assay: Cell cycle assay in T47Dp53 cells; assay type: cell-based, human; settings: 150 nM, 48 hours, relative to untreated control
In the oligonucleotide strings, read from the 5' end, every base follows the letter of its sugar. An asterisk marks phosphorothioate; unmarked linkages are phosphodiester. Other units and linkages are bracketed, terminal groups are in braces. A string of capitals states the bases alone. e = 2'-O-(2-methoxyethyl) (MOE); [5mC] = 5-methylcytosine; d = 2'-deoxy (DNA)
experimentalReadout: % cells in cell cycle phase subG1 (%)
Give just the number in %; leave the unit off.

Past entries and their recorded results:
[
  {
    "substance": "327902 (antisense eG*eG*e[5mC]*eT*eG*eT*e[5mC]*eA*eA*eT*eT*e[5mC]*eA*eT*eA*eG*eG*eT*e[5mC]*eA*eG) [compound 327902]",
    "experimentalTarget": "T47Dp53 cells",
    "% cells in cell cycle phase subG1 [%]": 155
  },
  {
    "substance": "25690 (antisense eA*eT*e[5mC]*e[5mC]*e[5mC]*dT*dT*dT*d[5mC]*dT*dT*d[5mC]*d[5mC]*dG*d[5mC]*eA*eT*eG*eT*eG) [compound 25690]",
    "experimentalTarget": "T47Dp53 cells",
    "% cells in cell cycle phase subG1 [%]": 193
  },
  {
    "substance": "338769 (antisense GCTTCCCAGCGGCCTATAGT; all 2'-MOE, all phosphorothioate, methylation of C not given here) [compound 338769]",
    "experimentalTarget": "T47Dp53 cells",
    "% cells in cell cycle phase subG1 [%]": 116
  },
  {
    "substance": "328403 (antisense eA*eG*eG*e[5mC]*e[5mC]*dT*dA*dT*dT*d[5mC]*d[5mC]*dT*dG*dT*dA*eG*e[5mC]*eA*eA*eA) [compound 328403]",
    "experimentalTarget": "T47Dp53 cells",
    "% cells in cell cycle phase subG1 [%]": 140
  },
  {
    "substance": "328759 (antisense eG*eA*eG*eG*eG*dA*dT*dT*dG*dT*dA*dT*dG*dA*dA*e[5mC]*eA*eT*e[5mC]*eT) [compound 328759]",
    "experimentalTarget": "T47Dp53 cells",
    "% cells in cell cycle phase subG1 [%]": 423
  }
]

Q) Param readout = % cells in cell cycle phase subG1; param system = T47Dp53 cells; param query = 327905 (antisense e[5mC]*eA*eG*eA*e[5mC]*eT*e[5mC]*e[5mC]*eG*eG*eT*eG*eG*eA*eA*eT*eG*eA*eA*eG*eG*eA) [compound 327905] ; response: value
A) 109

Q) Param readout = % cells in cell cycle phase subG1; param system = T47Dp53 cells; param query = 328744 (antisense e[5mC]*eG*eG*eA*eT*d[5mC]*d[5mC]*dT*dG*dT*dT*dA*d[5mC]*d[5mC]*dT*e[5mC]*eA*e[5mC]*e[5mC]*eA) [compound 328744] ; response: value
A) 90

Q) Param readout = % cells in cell cycle phase subG1; param system = T47Dp53 cells; param query = 25691 (antisense eG*e[5mC]*e[5mC]*eA*eA*dG*dG*d[5mC]*dG*dT*dG*dA*d[5mC]*dA*dT*eG*eA*eT*eA*eT) [compound 25691] ; response: value
A) 212

----------
tested on: A549 cells; assay: Cell cycle assay in A549 cells; type: cell-based, human; conditions: A549 cells, 25 nM, 24 hours; relative to the untreated control cells in that phase
# Lookup of reported % cells in cell cycle phase: subG1 keyed by entry
Give just the number in %; leave the unit off.

[
  {
    "substance": "338769 (antisense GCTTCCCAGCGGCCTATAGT; all 2'-MOE, all phosphorothioate, methylation of C not given here) [compound 338769]",
    "measValue": 62
  },
  {
    "substance": "340350 (antisense TGCTCAATAAATACCCGTTGAA; all 2'-MOE, all phosphorothioate, methylation of C not given here) [compound 340350]",
    "measValue": 91
  },
  {
    "substance": "338637 (antisense TCAGAGCGGAGAGACACAAG; all 2'-MOE, all phosphorothioate, methylation of C not given here) [compound 338637]",
    "measValue": 89
  }
]

Here's the next entry for you.
Q) Endpoint output: % cells in cell cycle phase: subG1 of 338836 (antisense TCCTCGGTGGCAGAGCTCAG; all 2'-MOE, all phosphorothioate, methylation of C not given here) [compound 338836] . Value?
A) 76

----------
system: HeLa cells; experiment: Cell cycle assay in HeLa cells; type: cell-based, human; details: HeLa, 150 nM, 24 hours
In the oligonucleotide strings, read from the 5' end, every base follows the letter of its sugar. An asterisk marks phosphorothioate; unmarked linkages are phosphodiester. Other units and linkages are bracketed, terminal groups are in braces. A string of capitals states the bases alone. e = 2'-O-(2-methoxyethyl) (MOE); [5mC] = 5-methylcytosine; d = 2'-deoxy (DNA)
experimentalReadout: phase of the cell cycle in which cells arrest or delay

Past entries and their recorded results:
[
  {
    "substance": "ISIS 338836: SEQ ID NO: 663, targeted against mir-23a (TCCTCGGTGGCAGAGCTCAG; all 2'-MOE, all phosphorothioate, methylation of C not given here)",
    "measValue": "G1-phase"
  },
  {
    "substance": "ISIS 338637: SEQ ID NO: 464, targeted against mir-96 (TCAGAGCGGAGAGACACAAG; all 2'-MOE, all phosphorothioate, methylation of C not given here)",
    "measValue": "G1-phase"
  },
  {
    "substance": "AGCCTATCCTGGATTACTTGAA (chemistry not fully specified) [ISIS 345373]",
    "measValue": "G2/M-phase"
  },
  {
    "substance": "AAGGGATTCCTGGGAAAACTGGAC (chemistry not given here) [ISIS 327933, uniform 2′-MOE PS; targets mir-145]",
    "measValue": "G2/M-phase"
  },
  {
    "substance": "ISIS 328421: 5-10-5 2′-MOE gapmer PS; targets mir-30d pri-miRNA (eG*e[5mC]*eT*eT*eA*dG*d[5mC]*dT*dG*dT*dG*dT*d[5mC]*dT*dT*eA*e[5mC]*eA*eG*e[5mC])",
    "measValue": "G2/M-phase"
  },
  {
    "substance": "ISIS 328383: chimeric 2′-MOE gapmer targeted against the mir-192-1 precursor (eA*eG*eA*eG*eG*dG*dG*dA*dG*dA*d[5mC]*dG*dA*dG*dA*eG*e[5mC]*eA*e[5mC]*eT)",
    "measValue": "G2/M-phase"
  },
  {
    "substance": "ISIS 340350: SEQ ID NO: 855, targeted against mir-95 (Mourelatos) (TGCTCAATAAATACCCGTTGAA; all 2'-MOE, all phosphorothioate, methylation of C not given here)",
    "measValue": "G1-phase"
  },
  {
    "substance": "ISIS 328403: 5-10-5 2′-MOE gapmer PS; SEQ ID NO 512; targets mir-106 pri-miRNA (eA*eG*eG*e[5mC]*e[5mC]*dT*dA*dT*dT*d[5mC]*d[5mC]*dT*dG*dT*dA*eG*e[5mC]*eA*eA*eA) [5-10-5 2′-MOE gapmer PS; targets mir-106 pri-miRNA]",
    "measValue": "G2/M-phase"
  },
  {
    "substance": "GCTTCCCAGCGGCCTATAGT (chemistry not given here) [ISIS 338769]",
    "measValue": "G1-phase"
  }
]

Q) Endpoint output: phase of the cell cycle in which cells arrest or delay of GGCTGTCAATTCATAGGTCAG (anti-miR; chemistry not fully specified) [ISIS 327902, uniform 2′-MOE PS; targets mir-192-1] . Value?
A) G2/M-phase
